Data origin: paper PMC7826789

Below, each of the molecules is paired with its reported Percent Control value.
System: DYRK1A
ASSAY_CONDITIONS: Compound Concentration (nM):1000;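 also: KINOMEscan scanMAX binding as percent activity remaining versus control; lower means stronger binding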
ENDPOINT_NAME: Percent Control (%)

| MOLECULE | ENDPOINT_NAME | DATA_VALUE |
| --- | --- | --- |
| NS(=O)(=O)c1ccc(N/N=C2\C(=O)Nc3ccc(C(=O)NCCc4c[nH]cn4)cc32)cc1 [GW300660X] | Percent Control | 50 |
| CC(C)COC(=O)c1ccc2c(c1)/C(=C/Nc1ccc(S(N)(=O)=O)cc1)C(=O)N2 [GW416981X] | Percent Control | 26 |
| CN(C)CCNC(=O)Nc1ccc(N(C)c2ccnc(Nc3ccc(CS(C)(=O)=O)cc3)n2)cc1.Cl [GW830900A] | Percent Control | 100 |
| Cl.O=S1CCN(Cc2ccc(-c3ccc4ncnc(Nc5ccc(OCc6ccccc6)c(F)c5)c4c3)o2)CC1 [GW576924A] | Percent Control | 100 |
| Cl.O=C(Nc1ccc(Oc2ccc3[nH]c(NC(=O)c4ccccc4)nc3c2)cc1)Nc1cc(C(F)(F)F)ccc1F [GW709042A] | Percent Control | 100 |
| COc1cccc(-c2c[nH]c3c(N/N=C/c4ccncc4)ncnc23)c1 [GW814408X] | Percent Control | 7.6 |
| NS(=O)(=O)c1ccc(N/N=C2\C(=O)Nc3ccc(Cl)cc32)cc1 [GW280670X] | Percent Control | 100 |
| COc1cc(/C=N/Nc2ncnc3[nH]ncc23)ccc1O [GW578748X] | Percent Control | 12 |

---

Tested on: YANK1
Construct: gene STK32A
ASSAY_CONDITIONS: Compound Concentration (nM):1000
ENDPOINT_NAME: Percent Control (%)

| COMPOUND | UNIT_ABBREV | DATA_VALUE |
| --- | --- | --- |
| Cl.c1ccc(Cc2nc3ccc(Nc4ncnc5ccccc45)cc3[nH]2)cc1 [GR269666A] | % | 100 |
| COc1cccc(-n2ncc3c(N/N=C/c4ccncc4)ncnc32)c1 [GW784752X] | % | 100 |
| CN1CCN(C(=O)c2ccc(NC(=O)Nc3ccc(N(C)c4ccnc(Nc5ccc(CS(C)(=O)=O)cc5)n4)cc3)cc2)CC1.Cl [GW830263A] | % | 68 |
| COc1cc(C)c(N(C)C(=O)CN(C)C)cc1Nc1nc(Nc2cccc(F)c2C(N)=O)c2cc[nH]c2n1 [GSK2219385] | % | 87 |
| COc1cc2ncn(-c3cc(O[C@H](C)c4ccccc4Cl)c(C(N)=O)s3)c2cc1OC [GSK237701A] | % | 91 |
| COc1cc(N2CCN(C(C)C)CC2)ccc1Nc1nc(Nc2ccc(F)cc2C(=O)NC[C@@H](O)CO)c2cc[nH]c2n1 [GSK1392956A] | % | 100 |
| O=C(Nc1n[nH]c2nc(-c3ccc(O)cc3)c(Br)cc12)C1CC1 [SB-725317] | % | 100 |
| Cc1cc(O)cc(C)c1/C=C/c1cncc(C(N)=O)c1 [GW435821X] | % | 100 |

---

Tested on: PKAC-alpha
Construct: gene PRKACA
ASSAY_CONDITIONS: Compound Concentration (nM):1000
ENDPOINT_NAME: Percent Control

| COMPOUND | ENDPOINT_NAME | DATA_VALUE |
| --- | --- | --- |
| COc1ccccc1-c1cc(/C=C2\C(=O)Nc3ncc(Br)cc32)cc(Br)c1O [GW442130X] | Percent Control | 95% |
| Nc1ncnc2occ(-c3ccc(NC(=O)Nc4cc(C(F)(F)F)ccc4F)cc3)c12 [GW770249X] | Percent Control | 100% |
| NS(=O)(=O)c1ccc(N/N=C2\C(=O)Nc3ccc(C(=O)NCc4ccncc4)cc32)cc1 [GW300657X] | Percent Control | 100% |
| COc1cc(/C=N/Nc2ncnc3[nH]ncc23)ccc1O [GW578748X] | Percent Control | 100% |
| COc1ccc(COc2ccc(Cc3cnc(N)nc3N)cc2OC)cc1 [GW632580X] | Percent Control | 91% |
| CN(C)CCNC(=O)Nc1ccc(N(C)c2ccnc(Nc3ccc(CS(C)(=O)=O)cc3)n2)cc1.Cl [GW830900A] | Percent Control | 100% |
| Cl.O=C(Nc1ccc(Oc2ccc3[nH]c(NC(=O)c4ccco4)nc3c2)cc1)Nc1cc(C(F)(F)F)ccc1F [GW683134A] | Percent Control | 100% |
| O=C1Nc2ccc(C(=O)c3ccco3)cc2C1=Cc1cc(Cl)c(O)c(Cl)c1 [GW406108X] | Percent Control | 100% |
| COc1ccc2cc(-c3c(-c4ccncc4)nc(-c4ccc(S(C)(=O)=O)cc4C)n3C)ccc2c1 | Percent Control | 96% |
| COc1cc(C)c(N(C)C(=O)CN(C)C)cc1Nc1nc(Nc2cccc(F)c2C(N)=O)c2cc[nH]c2n1 | Percent Control | 100% |
| Cl.c1ccc(Cc2nc3ccc(Nc4ncnc5ccccc45)cc3[nH]2)cc1 [GR269666A] | Percent Control | 100% |
| CC(C)COC(=O)c1ccc2c(c1)/C(=C/Nc1ccc(S(N)(=O)=O)cc1)C(=O)N2 [GW416981X] | Percent Control | 100% |
| Cc1cc(O)cc(C)c1/C=C/c1cncc(C(N)=O)c1 [GW435821X] | Percent Control | 100% |

---

Tested on: LRRK2(G2019S)
ASSAY_CONDITIONS: Compound Concentration (nM):1000
Below, each of the compounds is paired with its reported Percent Control value.

| COMPOUND | Percent Control, % |
| --- | --- |
| COc1ccc2c(-c3ccnc(Nc4cccc(OC(F)(F)F)c4)n3)cnn2n1 [GW810372X] | 86 |
| COc1cccc(-n2ncc3c(N/N=C/c4ccncc4)ncnc32)c1 [GW784752X] | 96 |
| CN(C)CCNC(=O)Nc1ccc(N(C)c2ccnc(Nc3ccc(CS(C)(=O)=O)cc3)n2)cc1.Cl [GW830900A] | 76 |
| CC(C)COC(=O)c1ccc2c(c1)/C(=C/Nc1ccc(S(N)(=O)=O)cc1)C(=O)N2 [GW416981X] | 36 |
| CCn1c(-c2nonc2N)nc2c(C#CC(C)(C)O)nc(OCCNC)cc21.Cl | 100 |
| O=C(Nc1n[nH]c2nc(-c3ccc(O)cc3)c(Br)cc12)C1CC1 | 96 |
| CN1CCN(C(=O)c2ccc(NC(=O)Nc3ccc(N(C)c4ccnc(Nc5ccc(CS(C)(=O)=O)cc5)n4)cc3)cc2)CC1.Cl [GW830263A] | 71 |
| CC1=C(C(=O)Nc2ccc3[nH]ncc3c2)C(c2ccc3ccccc3c2)CC(=O)N1 (centres unmarked) [GSK270822A] | 77 |

---

compounds and their reported Percent Control
Tested on: PLK2
ASSAY_CONDITIONS: Compound Concentration (nM):1000
ENDPOINT_NAME: Percent Control (%)

| COMPOUND | ENDPOINT_NAME | UNIT_ABBREV | DATA_VALUE |
| --- | --- | --- | --- |
| CCn1c(-c2nonc2N)nc2c(C#CC(C)(C)O)nc(OCCNC)cc21.Cl | Percent Control | % | 100 |
| CCS(=O)(=O)c1ccc(OC)c(Nc2ncc(-c3cccc(F)c3)o2)c1 [GW621970X] | Percent Control | % | 93 |
| Cl.O=C(Nc1ccc(Oc2ccc3[nH]c(NC(=O)c4ccco4)nc3c2)cc1)Nc1cc(C(F)(F)F)ccc1F [GW683134A] | Percent Control | % | 88 |
| CN(C)CCNC(=O)Nc1ccc(N(C)c2ccnc(Nc3ccc(CS(C)(=O)=O)cc3)n2)cc1.Cl [GW830900A] | Percent Control | % | 100 |
| COC(=O)Nc1nc2ccc(Oc3ccc(NC(=O)Nc4cc(C(F)(F)F)ccc4F)cc3)cc2s1.Cl [GW693917A] | Percent Control | % | 96 |
| CCc1ccc(Oc2nccc(-c3c(-c4ccc(F)cc4)ncn3C3CCNCC3)n2)cc1 | Percent Control | % | 77 |
| COc1cc(C)c(N(C)C(=O)CN(C)C)cc1Nc1nc(Nc2cccc(F)c2C(N)=O)c2cc[nH]c2n1 | Percent Control | % | 100 |
| O=C(Nc1n[nH]c2nc(-c3ccc(O)cc3)c(Br)cc12)C1CC1 | Percent Control | % | 83 |
| Cl.O=C(O[C@H]1CN[C@H](C#Cc2cc3ncnc(Nc4ccc5c(cnn5Cc5ccccc5)c4)c3s2)C1)N1CCOCC1 [GSK200398A] | Percent Control | % | 92 |
| C[C@@H](Oc1cc(-n2cnc3ccc(OC4CCN(C)CC4)cc32)sc1C(N)=O)c1ccccc1Cl [GSK579289A] | Percent Control | % | 13 |
| COc1ccc2cc(-c3c(-c4ccncc4)nc(-c4ccc(S(C)(=O)=O)cc4C)n3C)ccc2c1 | Percent Control | % | 89 |
| Cc1cc(O)cc(C)c1/C=C/c1cncc(C(N)=O)c1 [GW435821X] | Percent Control | % | 93 |
| COc1cc2ncn(-c3cc(O[C@H](C)c4ccccc4Cl)c(C(N)=O)s3)c2cc1OC [GSK237701A] | Percent Control | % | 1.8 |
| CN1CCN(C(=O)c2ccc(NC(=O)Nc3ccc(N(C)c4ccnc(Nc5ccc(CS(C)(=O)=O)cc5)n4)cc3)cc2)CC1.Cl [GW830263A] | Percent Control | % | 100 |
| O=C1Nc2ccc(C(=O)c3ccco3)cc2C1=Cc1cc(Cl)c(O)c(Cl)c1 [GW406108X] | Percent Control | % | 27 |
| CCS(=O)(=O)c1ccc(OC)c(Nc2ncc(-c3cccc(OC)c3)o2)c1 [GW580509X] | Percent Control | % | 86 |
| NS(=O)(=O)c1ccc(Nc2ncc(-c3ccccc3)o2)cc1 [GW572399X] | Percent Control | % | 86 |
